What koff was measured for each of the following?
- Measured On: T1, human IL-6 (human, UniProt P05231 30-212)
- T1 construct: also called interleukin-6
- Protocol: SPR (Biacore T200), antibody from cell supernatant captured on Protein A, IL-6 flowed over, 37 C
Quick reminder: number only, in s⁻¹, skip the unit.

Entry anti-IL-6 antibody, heavy chain I51W, G66D / light chain WT (antibody, human IgG1, V domains shown, Derived as m2; Engineered human IgG1) VH: EVQLVESGGGLVQPGGSLRLSCAASGFTFSPFAMSWVRQAPGKGLEWVAKWSPGGSWTYYSDTVTDRFTFSLDTSKSTAYLQMNSLRAEDTAVYYCARQLWGYYALDIWGQGTLVTVSS VL: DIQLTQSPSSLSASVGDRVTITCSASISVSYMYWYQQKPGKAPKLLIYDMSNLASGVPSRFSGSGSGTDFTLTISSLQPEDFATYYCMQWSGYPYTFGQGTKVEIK , koff reported as 0.00943

Value of koff reported for the binder anti-IL-6 antibody, heavy chain S35P, G66D / light chain WT (antibody, human IgG1, V domains shown, Derived as m2; Engineered human IgG1) VH: EVQLVESGGGLVQPGGSLRLSCAASGFTFSPFAMPWVRQAPGKGLEWVAKISPGGSWTYYSDTVTDRFTFSLDTSKSTAYLQMNSLRAEDTAVYYCARQLWGYYALDIWGQGTLVTVSS VL: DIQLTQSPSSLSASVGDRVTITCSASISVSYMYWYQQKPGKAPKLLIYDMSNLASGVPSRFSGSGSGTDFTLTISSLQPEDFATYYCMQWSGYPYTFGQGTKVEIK is 0.00123

Given item anti-IL-6 antibody, heavy chain T63D, G66D / light chain WT (antibody, human IgG1, V domains shown, Derived as m2; Engineered human IgG1) VH: EVQLVESGGGLVQPGGSLRLSCAASGFTFSPFAMSWVRQAPGKGLEWVAKISPGGSWTYYSDDVTDRFTFSLDTSKSTAYLQMNSLRAEDTAVYYCARQLWGYYALDIWGQGTLVTVSS VL: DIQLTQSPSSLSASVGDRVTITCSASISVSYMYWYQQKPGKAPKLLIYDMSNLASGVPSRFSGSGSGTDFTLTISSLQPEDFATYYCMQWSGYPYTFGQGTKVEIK , the value recorded as its koff is 0.000392

For reference, reported koff for anti-IL-6 antibody, heavy chain S35Y, G66D / light chain WT (antibody, human IgG1, V domains shown, Derived as m2; Engineered human IgG1) VH: EVQLVESGGGLVQPGGSLRLSCAASGFTFSPFAMYWVRQAPGKGLEWVAKISPGGSWTYYSDTVTDRFTFSLDTSKSTAYLQMNSLRAEDTAVYYCARQLWGYYALDIWGQGTLVTVSS VL: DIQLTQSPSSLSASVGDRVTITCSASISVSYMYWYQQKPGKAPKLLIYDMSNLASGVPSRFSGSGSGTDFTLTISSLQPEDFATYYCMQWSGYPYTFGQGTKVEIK stands at 0.000551
